Biological target: CFTR (Homo sapiens)
Construct: expressed in transfected cells
Sequence (P13569 whole entry): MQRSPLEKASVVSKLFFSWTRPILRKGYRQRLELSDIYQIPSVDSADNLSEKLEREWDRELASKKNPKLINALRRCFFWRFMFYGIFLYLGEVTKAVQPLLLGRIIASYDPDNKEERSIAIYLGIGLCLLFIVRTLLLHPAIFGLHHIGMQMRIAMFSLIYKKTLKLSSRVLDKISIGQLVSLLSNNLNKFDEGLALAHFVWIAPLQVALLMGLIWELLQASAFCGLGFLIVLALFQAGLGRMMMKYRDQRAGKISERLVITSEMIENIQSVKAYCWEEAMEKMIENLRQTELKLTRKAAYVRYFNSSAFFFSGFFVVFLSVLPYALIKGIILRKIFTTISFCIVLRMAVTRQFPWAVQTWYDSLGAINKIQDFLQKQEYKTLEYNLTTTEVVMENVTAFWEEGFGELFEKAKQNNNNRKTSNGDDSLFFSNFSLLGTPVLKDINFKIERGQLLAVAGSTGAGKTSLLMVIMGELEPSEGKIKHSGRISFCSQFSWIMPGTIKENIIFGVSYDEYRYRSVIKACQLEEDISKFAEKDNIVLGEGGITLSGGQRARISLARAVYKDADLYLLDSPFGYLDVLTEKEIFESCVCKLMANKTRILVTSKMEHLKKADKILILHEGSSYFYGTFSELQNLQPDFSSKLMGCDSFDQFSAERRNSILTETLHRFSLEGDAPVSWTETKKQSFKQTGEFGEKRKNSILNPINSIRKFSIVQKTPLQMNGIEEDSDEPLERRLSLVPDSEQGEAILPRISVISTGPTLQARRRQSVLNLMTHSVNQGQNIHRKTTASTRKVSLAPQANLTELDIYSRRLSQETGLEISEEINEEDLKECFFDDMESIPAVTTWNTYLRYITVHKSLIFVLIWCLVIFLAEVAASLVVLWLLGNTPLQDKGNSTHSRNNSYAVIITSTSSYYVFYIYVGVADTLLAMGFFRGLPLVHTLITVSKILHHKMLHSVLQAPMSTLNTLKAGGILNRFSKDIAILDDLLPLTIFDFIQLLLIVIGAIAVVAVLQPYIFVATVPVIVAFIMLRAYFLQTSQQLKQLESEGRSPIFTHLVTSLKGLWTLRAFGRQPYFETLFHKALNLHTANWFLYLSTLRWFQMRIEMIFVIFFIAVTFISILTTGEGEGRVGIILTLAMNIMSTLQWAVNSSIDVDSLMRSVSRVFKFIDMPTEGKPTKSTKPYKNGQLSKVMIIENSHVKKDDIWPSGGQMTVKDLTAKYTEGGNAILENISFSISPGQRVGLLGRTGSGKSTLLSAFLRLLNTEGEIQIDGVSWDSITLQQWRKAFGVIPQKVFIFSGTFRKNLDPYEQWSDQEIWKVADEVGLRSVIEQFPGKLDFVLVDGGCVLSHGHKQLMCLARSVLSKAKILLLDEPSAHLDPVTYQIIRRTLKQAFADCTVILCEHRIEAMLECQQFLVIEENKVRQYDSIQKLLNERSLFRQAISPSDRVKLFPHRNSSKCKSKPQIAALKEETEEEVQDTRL
Test: IonWorks Quattro assay (CFTR Inhibitor Assay), whole-cell planar patch clamp
Type: cell-based
Conditions: inward current (−100 mV); CHO cells stably expressing WT-CFTR; CFTR activated by 10 μM forskolin; test compound incubated 10 min
# note: exactly 1 µM is not below, so it is No; use Yes for IC50 strictly under it

Illustrative cases are given below, each with its answer.
- COMPOUND: "Cn1c(=O)c2c(-c3nc(C(=O)O)cs3)n3c(c2n(C)c1=O)C(c1ccc(Cl)o1)SCC3 (racemic)"
  DISCRETE_LABEL: "No"
- COMPOUND: "Cc1csc(-c2c3c(=O)n(C)c(=O)n(C)c3c3n2C[C@H](CO)S[C@H]3c2ccc(Cl)o2)n1 (single isomer, unassigned)"
  DISCRETE_LABEL: "Yes"
- COMPOUND: "Cc1csc(-c2c3c(=O)n(C)c(=O)n(C)c3c3n2C[C@@H](CN2CCCC2=O)S[C@@H]3c2ccc(Cl)o2)n1 (single isomer, unassigned)"
  DISCRETE_LABEL: "Yes"
- COMPOUND: "Cn1c(=O)c2c(-c3cccc(F)c3)n3c(c2n(C)c1=O)[C@H](c1ccc(Cl)o1)S[C@@H](CO)C3 (single isomer, unassigned)"
  DISCRETE_LABEL: "Yes"
- COMPOUND: "CCn1c(=O)c2c(-c3ccccc3)n3c(c2n(CC)c1=O)C(c1ccc(Cl)o1)SCC3 (single isomer, unassigned)"
  DISCRETE_LABEL: "No"
- COMPOUND: "Cc1ccc(C2SC[C@H](CN(C)C)n3c(-c4ccccc4)c4c(=O)n(C)c(=O)n(C)c4c32)o1 (single isomer, unassigned)"
  DISCRETE_LABEL: "Yes"
- COMPOUND: "Cc1ccc([C@H]2CCCn3c(-c4ccccc4)c4c(=O)n(C)c(=O)n(C)c4c32)o1"
  DISCRETE_LABEL: "No"
- COMPOUND: "Cn1c(=O)c2c(-c3cccc(C#N)c3)n3c(c2n(C)c1=O)[C@H](c1nc(Cl)cs1)C[C@@H](CO)C3 (single isomer, unassigned)"
  DISCRETE_LABEL: "Yes"

Please let me know if Cc1csc(C2CCNn3c(-c4ccccc4)c4c(=O)n(C)c(=O)n(C)c4c32)n1 (racemic) shows IC50 below 1 µM.
No

Queued: Cc1csc(C2c3c4c(c(-c5cccc(C#N)c5)n3CC2(C)C)c(=O)n(C)c(=O)n4C)n1 (single isomer, unassigned)
No

Queued: Cc1nnc(-c2c3c(=O)n(C)c(=O)n(C)c3c3n2CCSC3c2ccc(Cl)o2)o1 (racemic)
No

Queued: Cn1c(=O)c2c(-c3ccccc3)n3c(c2n(C)c1=O)C(c1cccc(F)c1F)CCC3 (racemic)
No

Queued: Cn1c(=O)c2c(-c3cccc(F)c3)n3c(c2n(C)c1=O)[C@H](c1nc(Cl)cs1)C[C@@H]3CO [Example 27a]
Yes

* * *

Target: CFTR (Homo sapiens)
Construct: expressed in transfected cells
Experiment: IonWorks Quattro assay (CFTR Inhibitor Assay), whole-cell planar patch clamp
Type: cell-based
Conditions: inward current (−100 mV); CHO cells stably expressing WT-CFTR; CFTR activated by 10 μM forskolin; test compound incubated 10 min
Text: CFTR activity can be quantified by electrophysiology methods, using the whole-cell configuration of the patch clamp technique (Hamill O, Marty A, Neher E, Sakmann B and Sigworth F. ‘Improved patch-clamp techniques for high resolution current recording from cells and cell-free membrane patches.’ Pflugers Archive 1981 391: 85-100). This assay directly measures the currents associated with chloride flow through CFTR channels whilst either maintaining or adjusting the transmembrane voltage. […]
# note: exactly 0.5 µM is not below, so it is 0.0; use 1.0 for IC50 strictly under it

Illustrative cases are given below, each with its answer.
- COMPOUND: "CN(C)C[C@@H]1Cn2c(-c3ccccc3)c3c(=O)n(C)c(=O)n(C)c3c2[C@@H](c2ccc(Cl)o2)S1 (single isomer, unassigned) [Example 14a]"
  DISCRETE_LABEL: 1.0
- COMPOUND: "Cn1c(=O)c2c(-c3ccccc3)n3c(c2n(C)c1=O)C(c1ccc(Cl)o1)SC(CO)C3 (single isomer, unassigned) [Example 12.b]"
  DISCRETE_LABEL: 0.0
- COMPOUND: "Cn1c(=O)c2c(-c3ccccc3)n3c(c2n(C)c1=O)C(c1cccc(C#N)c1)CCC3 (racemic)"
  DISCRETE_LABEL: 0.0
- COMPOUND: "Cn1c(=O)c2c(-c3cccc(F)c3)n3c(c2n(C)c1=O)[C@H](c1nc(Cl)cs1)C[C@@H](CO)C3 (single isomer, unassigned) [Example 23a]"
  DISCRETE_LABEL: 1.0

Now look at this one.
Please let me know if Cn1ccc(-c2c3c(=O)n(C)c(=O)n(C)c3c3n2CCCC3c2nc(Cl)cs2)n1 (racemic) shows IC50 below 0.5 µM.
1.0

* * *

Target: CFTR (Homo sapiens)
Construct: expressed in transfected cells
Assay: IonWorks Quattro assay (CFTR Inhibitor Assay), whole-cell planar patch clamp
Format: cell-based
Details: inward current (−100 mV); CHO cells stably expressing WT-CFTR; CFTR activated by 10 μM forskolin; test compound incubated 10 min
Could you please report measured log10 IC50 for the items listed next?
In plain terms, each number is the log10 of measured IC50 in µM.

Example cases with answers are listed next.
- MOLECULE: "Cc1coc(-c2c3c(=O)n(C)c(=O)n(C)c3c3n2CCSC3c2ccc(Cl)o2)n1 (racemic)"
  STUDY_SYSTEM: "CFTR (Homo sapiens)"
  QUANTITY_NAME: "log10 IC50"
  RECORDED_VALUE: 0.07
- MOLECULE: "Cc1ccc(C2SCCn3c(-c4ccccc4)c4c(=O)n(C)c(=O)n(C)c4c32)o1 (single isomer, unassigned) [Example 1.2]"
  STUDY_SYSTEM: "CFTR (Homo sapiens)"
  QUANTITY_NAME: "log10 IC50"
  RECORDED_VALUE: -0.10
- MOLECULE: "COCC(=O)NC[C@H]1Cn2c(-c3nc(C)cs3)c3c(=O)n(C)c(=O)n(C)c3c2[C@H](c2ccc(Cl)o2)S1 (single isomer, unassigned)"
  STUDY_SYSTEM: "CFTR (Homo sapiens)"
  QUANTITY_NAME: "log10 IC50"
  RECORDED_VALUE: -0.64
- MOLECULE: "Cc1ccc([C@@H]2C[C@H](C)Cn3c(-c4cccc(F)c4)c4c(=O)n(C)c(=O)n(C)c4c32)o1 (single isomer, unassigned)"
  STUDY_SYSTEM: "CFTR (Homo sapiens)"
  QUANTITY_NAME: "log10 IC50"
  RECORDED_VALUE: 0.34
- MOLECULE: "Cc1csc(-c2c3c(=O)n(C)c(=O)n(C)c3c3n2C[C@H](CNS(C)(=O)=O)S[C@H]3c2ccc(Cl)o2)n1 (single isomer, unassigned) [Example 26a]"
  STUDY_SYSTEM: "CFTR (Homo sapiens)"
  QUANTITY_NAME: "log10 IC50"
  RECORDED_VALUE: -0.82

Provide log10 IC50 for all items below, preserving their order.
1. COc1cccc(-c2c3c(=O)n(C)c(=O)n(C)c3c3n2CCSC3c2ccc(Cl)o2)c1 (single isomer, unassigned)
2. Cn1c(=O)c2c(-c3cccc(C#N)c3)n3c(c2n(C)c1=O)C(c1ccc(Cl)o1)SCC3 (single isomer, unassigned)

-0.21
-0.80
